Listed here are molecules together with their documented %Inh.
System: RIPK2
assay.context: concentration: 1 μM, replicates: in singlicate; n = 1;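 note: KINOMEscan kinase panel screen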
Give the number; % is assumed, so skip it.

Cl.NC(=O)c1cccc(Nc2nccc(Nc3ccc(Oc4c(Cl)cccc4Cl)c(Cl)c3)n2)c1 :: 84
Cl.Cl.NCC(NC(=O)c1cc(-c2ccccc2)c(-c2ccnc3[nH]ccc23)s1)c1ccccc1 (stereo not shown) :: 24
NCCCC(NC(=O)c1cc(Br)c(-c2ccnc3[nH]ccc23)s1)c1ccccc1.O=C(O)C(F)(F)F.O=C(O)C(F)(F)F (stereo not shown) :: 0
Cn1cc(-c2ccc3c(c2)CCN3C(=O)Cc2cccc(F)c2)c2c(N)ncnc21 :: 34

Given the molecule C[C@@H]1CC[C@@H](C(=O)Nc2ccccc2)CN1c1cc(-c2ccc3c(N)n[nH]c3c2)nc(N)n1 , what is its reported %Inh?
0

How about this molecule: O=C(Nc1cccc(-c2nn3ccccc3c2-c2ccnc(Nc3cccc(C(F)(F)F)c3)n2)c1)c1c(F)cccc1F
63

Ok, now CN1CCN(CCCNc2nccc(-c3c(-c4ccc(F)cc4)nn4cc(C(F)(F)F)ccc34)n2)CC1
52

* * *

Tested on: CAMK2G
assay.context: concentration: 1 μM, replicates: in singlicate; n = 1
recorded.endpoint: %Inh (%)
Report the value in % with no unit label.

Example molecules with recorded %Inh:
Cl.c1ccc(-c2ccc3c(Nc4ccc5[nH]ncc5c4)ccnc3c2)nc1 :: 16
Nc1ncnc2c1nc(-c1ccccc1)n2-c1ccccc1 :: 4

Give the reported %Inh for CC(C)c1nc(-c2cccc(NS(=O)(=O)c3c(F)cccc3F)c2F)c(-c2ccnc(Nc3ccc(N4CCOCC4)nc3)n2)s1 (system: CAMK2G).
29

And then CCCCc1nn2ncccc2c1-c1ccnc(Nc2ccc(N3CCN(C)CC3)cc2)n1 , what is it?
0

Then what about the molecule Fc1ccc(-c2ncn(C3CCNCC3)c2-c2ccnc(Oc3ccc(-c4ccccc4)cc3)n2)cc1 ?
17

Here is the next molecule: COc1ccc(Nc2nccc(N3CCC(NC(=O)Nc4cccc(OC)c4)C3)n2)cc1 (centres unmarked)
9

Proceed to COc1cc(Nc2nccc(-c3c(-c4cccc(NC(=O)c5c(F)cccc5F)c4)nn4ccccc34)n2)cc(OC)c1OC
40

And for Cn1cc(-c2ccc3c(c2)CCN3C(=O)Cc2cccc(F)c2)c2c(N)ncnc21 ?
34

* * *

System: EPHA7
assay.context: concentration: 1 μM, replicates: in singlicate; n = 1
# binarize %Inh: threshold 10% inclusive, high side Met, low side Not met

Here are 8 compounds together with their reported answers.
O=C(Nc1cccc(-c2nn3ccccc3c2-c2ccnc(Nc3cccc(F)c3)n2)c1)c1c(F)ccc(F)c1Cl :: Met
Cl.Cl.NCC(NCc1ccc(-c2ccnc3[nH]ccc23)s1)c1ccccc1 (stereo not drawn) :: Not met
CN1CCN(Cc2cccc(-c3ccc4c(Nc5ccc(Oc6ccccc6)cc5)ccnc4c3)c2)CC1 :: Not met
Cc1ccc(F)c(C(=O)Nc2cccc(-c3nn4ccccc4c3-c3ccnc(Nc4cccc(F)c4)n3)c2)c1F :: Met
CC(C)(C)c1ccc2nccc(Nc3cccc(O)c3)c2c1 :: Not met
COC(=O)Nc1nc2cc(Oc3ccc(NC(=O)Nc4cc(C(F)(F)F)ccc4F)cn3)ccc2[nH]1.Cl.Cl :: Met
COC(=O)Nc1nc2ccc(Oc3ccc(NC(=O)Nc4cc(C(F)(F)F)ccc4F)cc3)cc2n1C.Cl :: Met
c1ccc(Oc2ccc(Nc3ccnc4cc(-c5ccc(CNCCN6CCOCC6)o5)ccc34)cc2)nc1 :: Not met

Is the recorded value of %Inh equal to or greater than 10% for this compound? COc1cc2c(cc1OCCN1CCNCC1)ncc1c3ccc(C#N)cc3[nH]c21
Not met

Next record, please: O=C(Nc1cccc(Oc2ccc3nc(NC(=O)C4CC4)cn3n2)c1)c1ccccc1C(F)(F)F
Not met
